- Target System: T1, biotinylated human DLL3 protein expressed as a human IgG1 fusion protein (human, UniProt Q9NYJ7 27-492, limits assumed, biotinylated)
- T1 sequence: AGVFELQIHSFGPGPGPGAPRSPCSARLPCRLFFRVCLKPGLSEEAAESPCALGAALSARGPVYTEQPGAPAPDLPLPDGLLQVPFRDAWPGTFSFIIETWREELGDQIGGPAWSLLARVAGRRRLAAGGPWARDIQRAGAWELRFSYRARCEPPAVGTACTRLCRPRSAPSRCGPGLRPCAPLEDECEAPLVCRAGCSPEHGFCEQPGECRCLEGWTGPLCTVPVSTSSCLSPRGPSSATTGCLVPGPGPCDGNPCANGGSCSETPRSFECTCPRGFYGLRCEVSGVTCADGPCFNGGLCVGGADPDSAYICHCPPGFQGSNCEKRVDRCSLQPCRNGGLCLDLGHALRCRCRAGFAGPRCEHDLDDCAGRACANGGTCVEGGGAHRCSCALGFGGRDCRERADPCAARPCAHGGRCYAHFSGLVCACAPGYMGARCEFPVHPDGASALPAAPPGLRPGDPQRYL
- Assay Method Text: Octet BLI, single 50 nM
Listing: Kd of selected binders

Give its Kd value. Item: 1C011 anti-DLL3 trispecific protein (other, not shown: linker 1808, anti-albumin sdAb, linker 1808, anti-CD3 fragment, His6 1819) EVQLVESGGGLVQPGGSLTLSCVASGTTSSINAMGWYRRAPGKQRELVAGISSDGSKVYEDSVKGRFTISRDNAKNSVYLQMNSLRAEDTAVYYCYYFRTVSGSSMRYWGQGTLVTVSS
7.6 nM

Also 1H06 anti-DLL3 trispecific protein (other, not shown: linker 1808, anti-albumin sdAb, linker 1808, anti-CD3 fragment, His6 1819) EVQLVESGGGLVQPGGSLTLSCVASGTTSSINAMGWYRRAPGKQRELVAGISSDGSKVYVDSVKGRFTISRDNAKNSVYLQMNSLRAEDTAVYYCYYFRFLSGSSMRYWGQGTLVTVSS , if possible.
14 nM

Also 4F02 anti-DLL3 trispecific protein (other, not shown: linker 1808, anti-albumin sdAb, linker 1808, anti-CD3 fragment, His6 1819) EVQLVESGGGLVQPGGSLTLSCAASGSTVSFLSMAWYRQAPGKKRELVAGISHDGSTDYIDSVKGRFTISRDNAKNSVYLQMNSLRAEDTAVYYCYAYRWTTRYTYWGQGTLVTVSS , if possible.
15 nM

Also 2C010 anti-DLL3 trispecific protein (other, not shown: linker 1808, anti-albumin sdAb, linker 1808, anti-CD3 fragment, His6 1819) EVQLVESGGGLVQPGGSLTLSCVASGSTSKINAMGWYRRAPGKQRELVAGISSDRSKVYADSVKGRFTISRDNAKNSVYLQMNSLRAEDTAVYYCYYFRTVAGSSMRYWGQGTLVTVSS , if possible.
7.6 nM

Also 3H03 anti-DLL3 trispecific protein (other, not shown: linker 1808, anti-albumin sdAb, linker 1808, anti-CD3 fragment, His6 1819) EVQLVESGGGLVQPGGSLTLSCAASGSSVRFLSMAWYRQAPGKKRELVAGISTDGSTDYIDSVKGRFTISRDNAKNSVYLQMNSLRAEDTAVYYCYALRWTTRYTYWGQGTLVTVSS , if possible.
9.9 nM

Also 2E09 anti-DLL3 trispecific protein (other, not shown: linker 1808, anti-albumin sdAb, linker 1808, anti-CD3 fragment, His6 1819) EVQLVESGGGLVQPGGSLTLSCVASGSVSSINAMGWYRRAPGKQRELVAGISSDGSKVYASSAKGRFTISRDNAKNSVYLQMNSLRAEDTAVYYCYYFRTLSGSSMRYWGQGTLVTVSS , if possible.
8.5 nM

Also 4F011 anti-DLL3 trispecific protein (other, not shown: linker 1808, anti-albumin sdAb, linker 1808, anti-CD3 fragment, His6 1819) EVQLVESGGGLVQPGGSLTLSCAASGSKVSFLSMAWYRQAPGKKRELVAGISADGSKDYIDSVKGRFTISRDNAKNSVYLQMNSLRAEDTAVYYCYAYRWTTRYTYWGQGTLVTVSS , if possible.
8.2 nM

Also 4H08 anti-DLL3 trispecific protein (other, not shown: linker 1808, anti-albumin sdAb, linker 1808, anti-CD3 fragment, His6 1819) EVQLVESGGGLVQPGGSLTLSCAASGSSVKFLSMAWYRQAPGKKRELVAGISADGSTDYVDSVKGRFTISRDNAKNSVYLQMNSLRAEDTAVYYCYAYRWSTRYTYWGQGTLVTVSS , if possible.
8.9 nM
